Target: EF2K (Homo sapiens, UniProt O00418)
Construct: host or cells: LN-229 cell lysate
Sequence (O00418 whole entry): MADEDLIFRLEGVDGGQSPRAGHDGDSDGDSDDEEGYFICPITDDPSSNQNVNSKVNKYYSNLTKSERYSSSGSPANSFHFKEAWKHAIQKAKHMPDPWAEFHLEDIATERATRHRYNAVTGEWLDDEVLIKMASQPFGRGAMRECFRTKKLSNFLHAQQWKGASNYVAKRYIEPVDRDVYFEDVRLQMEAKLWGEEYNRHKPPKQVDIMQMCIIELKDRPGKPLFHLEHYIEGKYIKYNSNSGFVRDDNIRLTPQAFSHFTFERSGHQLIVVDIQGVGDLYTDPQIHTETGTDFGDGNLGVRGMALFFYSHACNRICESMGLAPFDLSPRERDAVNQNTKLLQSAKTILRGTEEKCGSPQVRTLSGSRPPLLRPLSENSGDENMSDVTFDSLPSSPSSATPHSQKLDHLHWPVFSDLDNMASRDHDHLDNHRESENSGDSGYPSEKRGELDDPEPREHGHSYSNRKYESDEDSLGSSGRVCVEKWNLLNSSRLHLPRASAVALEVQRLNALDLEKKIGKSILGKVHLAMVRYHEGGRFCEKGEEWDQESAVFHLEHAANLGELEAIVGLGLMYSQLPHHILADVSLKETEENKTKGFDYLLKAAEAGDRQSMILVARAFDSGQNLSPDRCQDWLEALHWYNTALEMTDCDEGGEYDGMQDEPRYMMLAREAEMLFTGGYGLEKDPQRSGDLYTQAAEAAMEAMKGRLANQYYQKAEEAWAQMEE
Assay: Biochemical EF2K lysate-based kinase assay (AlphaLISA p-eEF2 Thr56)
Conditions: pIC50 = -log IC50 (M), read-out: eEF2K_C_alphalisa pIC50 (converted)
Listed below: IC50 values for each entry.
Give a bare numeral; the unit M is implied.

Field: example entries. Status: answers known.
Tell me the measured IC50 of O=C1CN2CCN(CC2)Cc2cccc(c2F)Nc2nccc(n2)-c2ccc(nc2)NCCCN1 [Compound 4] , please.
8.32e-08

Similarly, O=C1CN2CCC(CC2)Cc2cccc(c2)Nc2nccc(n2)-c2ccc(nc2)NCCCN1 [Compound 115] ?
2.14e-07

Similarly, CC1CN2CCN1CC(=O)NCCCNc1ccc(cn1)-c1ccnc(n1)Nc1cccc(c1)C2 (stereo not drawn) [Compound 49] ?
3.89e-07

Continuing:
Tell me the measured IC50 of CN1CCCN(C)c2ccc(cn2)-c2ccnc(n2)Nc2cncc(c2)CN2CCN(CC2)CC1=O [Compound 33] , please.
6.61e-07

Similarly, O=C1CN2CCN(CC2)Cc2cccc(c2)Nc2nccc(n2)-c2ccc(nc2)CN(C(=O)C(F)(F)F)CCN1 [Compound 132] ?
6.92e-08

Similarly, O=C1CN2CCN(CC2)Cc2cc(ccc2F)Nc2nccc(n2)-c2ccc(nc2)NCCCN1 [Compound 2] ?
6.31e-08

Similarly, O=C1CN2CCN(Cc3cccc(c3)Nc3nccc(n3)-c3ccc(nc3)NCCCN1)C(CO)C2 (stereo not drawn) [Compound 46] ?
1.66e-07

Similarly, CS(=O)(=O)N1CCNC(=O)CN2CCN(CC2)Cc2cccc(c2)Nc2nccc(n2)-c2ccc(nc2)C1 [Compound 133] ?
2.57e-06

----------
Listed below: remaining activity at 1 µM values for each entry.
Target: UniProt Q8NEB9
Sequence (Q8NEB9 whole entry, species assumed): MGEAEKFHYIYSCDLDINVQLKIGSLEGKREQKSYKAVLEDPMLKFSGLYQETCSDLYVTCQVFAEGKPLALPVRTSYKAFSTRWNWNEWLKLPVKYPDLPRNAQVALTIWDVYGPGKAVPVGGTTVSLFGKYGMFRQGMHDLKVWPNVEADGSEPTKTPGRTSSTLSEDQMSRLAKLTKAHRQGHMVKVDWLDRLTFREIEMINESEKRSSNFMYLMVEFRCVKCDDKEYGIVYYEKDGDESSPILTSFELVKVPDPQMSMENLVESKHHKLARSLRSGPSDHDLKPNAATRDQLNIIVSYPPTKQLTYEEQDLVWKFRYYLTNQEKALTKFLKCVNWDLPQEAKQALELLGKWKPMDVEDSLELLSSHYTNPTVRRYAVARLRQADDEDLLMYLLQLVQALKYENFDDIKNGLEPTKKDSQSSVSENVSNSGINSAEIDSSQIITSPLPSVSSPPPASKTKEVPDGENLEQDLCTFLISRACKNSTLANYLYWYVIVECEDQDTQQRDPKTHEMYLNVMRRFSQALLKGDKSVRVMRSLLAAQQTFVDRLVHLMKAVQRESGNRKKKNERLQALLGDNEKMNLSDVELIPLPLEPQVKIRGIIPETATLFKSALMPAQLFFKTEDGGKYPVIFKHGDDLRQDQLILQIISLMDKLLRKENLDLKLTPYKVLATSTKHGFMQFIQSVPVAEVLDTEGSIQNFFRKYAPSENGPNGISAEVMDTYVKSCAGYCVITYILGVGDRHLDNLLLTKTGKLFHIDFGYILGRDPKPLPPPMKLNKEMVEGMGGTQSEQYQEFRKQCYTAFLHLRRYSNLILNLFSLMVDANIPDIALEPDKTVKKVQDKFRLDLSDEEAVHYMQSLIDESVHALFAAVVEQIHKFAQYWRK
Assay: Biochemical Vps34 lipid kinase assay (ADP-Glo)
Settings: 1 h, single dose 1 μM compound; residual activity compared to control (DMSO); read-out: VPS34_1microM_% of cntrl

Field: example entries. Status: answers known.
Tell me the measured remaining activity at 1 µM of O=C1CN2CCN(CC2)Cc2cc(F)cc(c2)Nc2nccc(n2)-c2ccc(nc2)NCCCN1 [Compound 5] , please.
7.3%

Similarly, O=C1CNCCCNc2ccc(cn2)-c2ccnc(n2)Nc2cccc(c2)N2CCN1CC2 [Compound 111] ?
1.43%

Similarly, CNC(=O)c1ccc2cc1CN1CCN(CC1)CC(=O)N(C)CCCN(C)c1ccc(cn1)-c1ccnc(n1)N2 [Compound 12] ?
7.68%

Similarly, CN1CCN(CCOCC2CN3CCN2Cc2cccc(c2)Nc2nccc(n2)-c2ccc(nc2)N(C)CCCN(C)C(=O)C3)CC1 (stereo not drawn) [Compound 106] ?
36.3%

Similarly, CN1CCN2Cc3cccc(c3)Nc3nccc(n3)-c3ccc(nc3)NCCCNC(=O)CC1C2 (stereo not drawn) [Compound 71] ?
12%

Similarly, CN1CCN(C)c2ccc(cn2)-c2ccnc(n2)Nc2cccc(c2)CN2CCN(C)C(C2)C1=O (stereo not drawn) [Compound 69] ?
22.8%

Continuing:
Tell me the measured remaining activity at 1 µM of CN1CCN(C)c2ccc(cn2)-c2ccnc(n2)Nc2ccc(O)c(c2)CN2CCN(CC2)CC1=O [Compound 131] , please.
17.3%

Similarly, O=C1CN2CCN(CC2)S(=O)(=O)c2cccc(c2)Nc2nccc(n2)-c2ccc(nc2)NCCCN1 [Compound 116] ?
14%

Similarly, O=C1CN2CCN(CC2)Cc2cccc(c2)Nc2nccc(n2)-c2ccc(nc2)NCCN1 [Compound 119] ?
15.7%
